biological target: Luciferin 4-monooxygenase (Photinus pyralis, UniProt P08659); assay: inhibition of purified Photinus pyralis luciferase – biochemical, luminescence, dose response (AID 1891)
Sequence (P08659 whole entry): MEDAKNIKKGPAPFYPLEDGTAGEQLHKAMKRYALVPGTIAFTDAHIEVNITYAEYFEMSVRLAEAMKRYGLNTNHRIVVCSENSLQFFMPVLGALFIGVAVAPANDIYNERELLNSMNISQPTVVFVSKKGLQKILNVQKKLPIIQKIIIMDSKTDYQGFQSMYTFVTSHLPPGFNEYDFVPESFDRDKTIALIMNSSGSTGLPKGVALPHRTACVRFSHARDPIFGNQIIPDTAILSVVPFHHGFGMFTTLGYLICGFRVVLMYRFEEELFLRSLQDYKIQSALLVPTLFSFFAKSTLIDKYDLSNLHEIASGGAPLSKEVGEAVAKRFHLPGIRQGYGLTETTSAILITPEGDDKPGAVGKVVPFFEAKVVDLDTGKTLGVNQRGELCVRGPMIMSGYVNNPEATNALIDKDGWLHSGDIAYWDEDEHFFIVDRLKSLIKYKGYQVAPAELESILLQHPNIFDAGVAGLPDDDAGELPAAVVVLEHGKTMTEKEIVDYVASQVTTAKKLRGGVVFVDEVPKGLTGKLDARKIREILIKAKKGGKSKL
Active and inactive are the calls of the source.
value type: EC50

Ask: GET /values?readout=EC50&item= Cc1nn(-c2ccccc2)c(Cl)c1/C=N/NC(=O)c1[nH]ncc1Br
Reply: 0.374 µM (active)

Ask: GET /values?readout=EC50&item= Cc1ccsc1/C=C1\CCc2ccccc2C1=O
Reply: 0.518 µM (active)

Ask: GET /values?readout=EC50&item= COc1ccc(S(=O)(=O)N(C)CC(=O)Nc2ccc3c(c2)OCO3)cc1OC
Reply: > 112 µM (not active)

Ask: GET /values?readout=EC50&item= O=C1c2ccccc2C(=O)N1OS(=O)(=O)c1ccc(F)cc1
Reply: > 112 µM (not active)

Ask: GET /values?readout=EC50&item= Cc1cc(S(=O)(=O)N2CCCCC2)ccc1OCC(=O)Nc1ccccc1
Reply: > 112 µM (not active)

Ask: GET /values?readout=EC50&item= O=C(c1ccc(Cl)cc1)C1CCCN(Cc2ccc(Oc3ncccn3)cc2)C1 (stereo unspecified)
Reply: > 112 µM (not active)

====

target: High affinity choline transporter 1 (Homo sapiens, UniProt Q9GZV3); assay: human choline transporter blockers, potency – cell-based, 5-point CRC, membrane potential dye, dose response (AID 504840); type: functional
Sequence (Q9GZV3 whole entry): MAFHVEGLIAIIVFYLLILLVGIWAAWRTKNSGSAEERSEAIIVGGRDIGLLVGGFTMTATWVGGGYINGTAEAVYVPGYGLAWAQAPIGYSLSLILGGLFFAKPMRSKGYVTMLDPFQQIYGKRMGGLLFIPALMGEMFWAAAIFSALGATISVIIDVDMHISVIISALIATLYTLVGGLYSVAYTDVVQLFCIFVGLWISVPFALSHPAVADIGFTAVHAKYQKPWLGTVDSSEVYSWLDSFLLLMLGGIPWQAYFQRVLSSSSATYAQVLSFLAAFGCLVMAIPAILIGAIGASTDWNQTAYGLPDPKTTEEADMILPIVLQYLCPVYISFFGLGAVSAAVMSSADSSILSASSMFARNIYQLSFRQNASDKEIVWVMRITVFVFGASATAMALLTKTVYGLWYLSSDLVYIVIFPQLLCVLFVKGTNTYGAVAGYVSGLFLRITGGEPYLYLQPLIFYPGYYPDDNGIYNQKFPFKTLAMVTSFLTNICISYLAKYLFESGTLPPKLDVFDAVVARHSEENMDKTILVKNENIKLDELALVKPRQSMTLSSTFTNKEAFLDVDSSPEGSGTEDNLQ
Calls of active or inactive are those of the source.
IC50 listing for selected molecules.

Ask: GET /values?readout=IC50&item= CC(/C=N/NC(=O)c1cc(-c2ccncc2)nc2ccccc12)=C\c1ccco1
Reply: 9.98 µM (active)

====

target: Zinc finger protein mex-5 (Caenorhabditis elegans); assay: potency of MEX-5 RNA-binding blockers – biochemical, C. elegans, fluorescence polarization, dose response (AID 1960)
Sequence (Q9XUB2 whole entry): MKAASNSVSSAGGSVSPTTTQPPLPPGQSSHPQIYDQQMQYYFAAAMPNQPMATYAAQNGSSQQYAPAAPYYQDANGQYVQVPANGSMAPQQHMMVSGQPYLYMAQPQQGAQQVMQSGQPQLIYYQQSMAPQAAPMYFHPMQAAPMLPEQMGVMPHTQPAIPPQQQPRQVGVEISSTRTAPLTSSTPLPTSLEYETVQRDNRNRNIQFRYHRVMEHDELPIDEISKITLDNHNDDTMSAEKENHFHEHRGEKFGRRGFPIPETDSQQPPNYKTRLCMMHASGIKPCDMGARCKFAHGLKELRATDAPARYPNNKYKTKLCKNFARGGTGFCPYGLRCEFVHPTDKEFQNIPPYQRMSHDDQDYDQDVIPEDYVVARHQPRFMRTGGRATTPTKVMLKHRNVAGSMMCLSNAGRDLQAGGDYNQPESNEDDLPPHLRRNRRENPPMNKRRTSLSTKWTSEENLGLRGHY
The source made the active and inactive calls.
value type: EC50

Cc1ccc[n+](-c2[nH]c(=O)sc2C=NNC(=O)c2ccccc2[O-])c1 : 38.5 µM (active)
Cc1ccc(C)c(N(C)C(=O)c2coc(=O)c3ccccc23)c1 : > 300 µM (not active)
COc1ccc(/C=C2\SC(=S)N(CCC(=O)NC3CCCC3)C2=O)cc1OC : 153 µM (active)
COc1ccccc1CCC(=O)OCc1csc(CC(=O)Nc2ccccc2C)n1 : > 300 µM (inconclusive)

Ask: GET /values?readout=EC50&item= Cn1cc(C2=C(c3ccc(Cl)cc3Cl)C(=O)NC2=O)c2ccccc21 [SB-216763]
Reply: 21.5 µM (inconclusive)

====

target: Mu-type opioid receptor (Homo sapiens); type: functional, cell-based;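 also: U2OS cells with beta-arrestin recruitment to OPRM1 by beta-gal complementation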
Sequence (P35372 whole entry): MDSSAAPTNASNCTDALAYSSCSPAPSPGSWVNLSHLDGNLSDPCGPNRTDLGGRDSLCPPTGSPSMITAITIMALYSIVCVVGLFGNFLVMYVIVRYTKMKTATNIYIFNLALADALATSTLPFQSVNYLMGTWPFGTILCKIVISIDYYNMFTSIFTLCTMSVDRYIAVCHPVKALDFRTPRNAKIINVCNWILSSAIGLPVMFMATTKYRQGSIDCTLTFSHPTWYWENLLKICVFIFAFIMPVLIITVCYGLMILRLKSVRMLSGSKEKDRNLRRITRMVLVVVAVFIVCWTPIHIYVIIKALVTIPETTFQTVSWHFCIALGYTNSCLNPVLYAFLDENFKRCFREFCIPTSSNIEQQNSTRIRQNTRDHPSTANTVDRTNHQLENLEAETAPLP
Active and inactive are the calls of the source.
EC50 listing for selected molecules.

Record excerpt, results attached:
COc1cc(CN2CCN(c3ncccn3)CC2)cc(OC)c1 : 92.4 µM (inactive)
c1ccc(COc2ccc(CN3CCN(c4ccccn4)CC3)cc2)cc1 : 92.5 µM (inactive)
Cc1ccccc1CN1CCN(C(=O)c2ccco2)CC1 : 92.5 µM (inactive)
CC(C)C[C@H]1C(=O)N2CCC[C@H]2[C@]2(O)O[C@](NC(=O)C3C=C4c5cccc6[nH]c(Br)c(c56)C[C@H]4N(C)C3)(C(C)C)C(=O)N12 (stereo not given in full) : 92.5 µM (inactive)

Ask: GET /values?readout=EC50&item= CN1CCc2c(sc(NC(=O)Cc3ccccc3)c2C#N)C1
Reply: 92.5 µM (inactive)

====

biological target: Prothrombin (Homo sapiens, UniProt P00734); assay: Thrombin 1536 HTS Dose Response Confirmation. [Related pubchem assays: 1046 (Thrombin 1536 HTS; hits were confirmed in this assay)]; type: functional
The source made the active and inactive calls.
value type: IC50

CCN(CC)S(=O)(=O)c1cccc(NC(=O)/C=C/c2cccc([N+](=O)[O-])c2)c1 : > 50 µM (not active)
CCOC(=O)CSc1n[nH]c(NC(=O)c2cccc(C)c2)n1 : 0.586 µM (active)
COc1ccc(CC(=O)n2nc(-c3ccccc3)nc2NCc2ccco2)cc1 : 8.75 µM (active)
C#CCNc1cc(C)nc2ncnn12 : > 50 µM (not active)

Ask: GET /values?readout=IC50&item= CC(C)c1ccc(N(CC(=O)N/N=C/c2ccc(OC3CSC3)cc2)S(=O)(=O)c2ccccc2)cc1
Reply: > 50 µM (not active)

Ask: GET /values?readout=IC50&item= Cc1ccc(C(=O)n2ncn(C)c2=S)cc1
Reply: 1.02 µM (active)

Ask: GET /values?readout=IC50&item= CSc1nc(-c2ccccc2)nn1C(=O)c1ccccc1
Reply: 0.896 µM (active)

Ask: GET /values?readout=IC50&item= COc1ccc(CNc2nc(-c3cccnc3)nn2C(=O)C(C)C)cc1
Reply: 0.167 µM (active)

Ask: GET /values?readout=IC50&item= CC(C)c1nnc(NC(=O)c2cnccn2)s1
Reply: > 50 µM (not active)

====

target: Carboxy-terminal domain RNA polymerase II polypeptide A small phosphatase 1 (Homo sapiens); experiment: CTDSP1 inhibitors, concentration-response, biochemical, absorbance readout, ultra-high-throughput screen actives (AID 540297); assay type: functional
Sequence (Q9GZU7 whole entry, the tested form may be a part): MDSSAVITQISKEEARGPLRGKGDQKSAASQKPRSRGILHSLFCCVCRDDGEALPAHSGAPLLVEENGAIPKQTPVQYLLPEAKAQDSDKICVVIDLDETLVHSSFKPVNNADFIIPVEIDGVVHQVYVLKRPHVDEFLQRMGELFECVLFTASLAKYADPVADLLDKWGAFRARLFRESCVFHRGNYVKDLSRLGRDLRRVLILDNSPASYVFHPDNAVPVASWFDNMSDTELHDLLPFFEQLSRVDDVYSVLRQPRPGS
Active and inactive are the calls of the source.
value type: IC50

O=C(Nc1cccc(-c2nc3ncccc3o2)c1)c1sc2cc(Cl)ccc2c1Cl : 7.21 µM (active)
CCc1ccccc1NC(=O)COc1ccc2oc(-c3ccc(OC)cc3)cc(=O)c2c1 : 8.65 µM (active)
N#Cc1ccccc1S(=O)(=O)N1CCN(C(=O)C2COc3ccccc3O2)CC1 (configuration not stated) : 3.54 µM (active)
Cc1ccc(C(=O)OCC(=O)c2ccc(CC(=O)N3CCOCC3)s2)c(C)c1 : 4.73 µM (active)
O=S(=O)([O-])CCC[n+]1ccc(Oc2ccccc2)cc1 : 12.9 µM (active)
Cc1cc(C)n2c(SC/C(O)=C(\C#N)c3nc4ccccc4[nH]3)nnc2n1 : 5.01 µM (active)

Ask: GET /values?readout=IC50&item= O=C(CSc1nccc(O)n1)N1N=C2/C(=C/c3ccco3)CCCC2C1c1ccco1 (configuration not stated)
Reply: 13 µM (active)

====

target: RNA-binding protein pos-1 (Caenorhabditis elegans, UniProt G5EF15); test: disruptors of C. elegans POS-1 RNA interaction – biochemical, fluorescence polarization, dose response (AID 1964);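 also: purified POS-1 fused to maltose binding protein made in E. coli; potency of compounds blocking POS-1 binding to fluorescent RNA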
Sequence (G5EF15 whole entry, the tested form may be a part): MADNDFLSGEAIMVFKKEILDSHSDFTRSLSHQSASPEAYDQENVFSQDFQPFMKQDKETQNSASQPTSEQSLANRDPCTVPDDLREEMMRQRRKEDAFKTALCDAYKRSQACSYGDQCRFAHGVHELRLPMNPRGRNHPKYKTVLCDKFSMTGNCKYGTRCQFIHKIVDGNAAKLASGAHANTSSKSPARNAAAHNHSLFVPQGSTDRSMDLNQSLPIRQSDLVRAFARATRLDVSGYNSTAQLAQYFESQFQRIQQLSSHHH
Active and inactive are the calls of the source.
value type: EC50

Record excerpt, results attached:
CN1CCC2(CC1)C(C#N)=C(N)NC(S)=C2C#N : 8.05 µM (active)
c1ccc(C2=NNC(c3ccccn3)=NN2)nc1 : 25.3 µM (active)
CC1(OC(=O)c2ccco2)C(=O)C=C2C=C(c3ccc(C#N)cc3)OC=C2C1=O (configuration not stated) : 52.2 µM (active)
COC(=O)c1cccc(-n2c(C)cc(C=O)c2C)c1C : > 300 µM (not active)
CC(C)Cc1nnc(NC(=O)CCC(=O)N2CC(C)CC(C)C2)s1 (configuration not stated) : > 300 µM (not active)

Ask: API: value(readout=EC50, system=RNA-binding protein pos-1 (Caenorhabditis elegans, UniProt G5EF15)) for record Cc1ccc[n+](-c2[nH]c(=O)sc2C=NNC(=O)c2ccccc2[O-])c1
Reply: 42.4 µM (active)

Ask: API: value(readout=EC50, system=RNA-binding protein pos-1 (Caenorhabditis elegans, UniProt G5EF15)) for record O=C1c2ccccc2C(=O)c2[nH]c(O)nc21
Reply: 28.9 µM (active)

====

System: Cytochrome P450 1A2 (Homo sapiens, UniProt P05177) | Read-out: AC50;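 also: PubChem cytochrome P450 panel assay, CYP1A2 panel member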
Sequence (P05177 whole entry): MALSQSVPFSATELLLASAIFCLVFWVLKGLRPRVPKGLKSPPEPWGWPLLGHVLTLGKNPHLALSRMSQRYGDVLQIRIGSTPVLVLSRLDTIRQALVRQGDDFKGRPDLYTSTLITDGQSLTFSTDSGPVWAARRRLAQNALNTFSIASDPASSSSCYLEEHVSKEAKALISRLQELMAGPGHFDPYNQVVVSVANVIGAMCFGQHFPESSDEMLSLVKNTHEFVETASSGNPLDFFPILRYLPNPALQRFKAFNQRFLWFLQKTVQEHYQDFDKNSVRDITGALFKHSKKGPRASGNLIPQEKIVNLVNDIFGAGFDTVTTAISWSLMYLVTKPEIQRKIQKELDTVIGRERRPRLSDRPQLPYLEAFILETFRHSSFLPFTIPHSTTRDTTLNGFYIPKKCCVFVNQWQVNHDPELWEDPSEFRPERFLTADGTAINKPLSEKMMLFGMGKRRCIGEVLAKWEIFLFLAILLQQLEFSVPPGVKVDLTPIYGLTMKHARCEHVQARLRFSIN

Record excerpt, results attached:
O=C(C1CCCN(S(=O)(=O)c2cccc3nsnc23)C1)N1CC=C(c2ccccc2)CC1 (stereo unspecified) : 14.1 µM (inconclusive)
CN(C)C(=O)c1ccc(-c2cncnc2Nc2ccccc2)cc1 : 31.6 µM (inconclusive)
Cc1ccc(S(=O)(=O)NCCC(=O)NCc2ccccc2)cc1 : 17.8 µM (inconclusive)

Ask: GET /values?readout=AC50&item= O=C(Nc1ccc(Br)cc1)C1CCC(=O)N1Cc1ccccc1Cl (stereo unspecified)
Reply: 14.1 µM (inconclusive)

Ask: GET /values?readout=AC50&item= O=C(Nc1ccc(Oc2ccccc2)cc1)C1CCN(c2c3c(nc4ncnn24)CCC3)CC1
Reply: 15.8 µM (inconclusive)

Ask: GET /values?readout=AC50&item= O=C(Nc1cccc(-c2nc3ncccc3o2)c1)c1sc2cc(Cl)ccc2c1Cl
Reply: 25.1 µM (inconclusive)

Ask: GET /values?readout=AC50&item= Cc1ccc(NC(=O)/C(=C\c2ccc3c(c2)OCO3)NC(=O)c2ccco2)cc1
Reply: 11.2 µM (inconclusive)

Ask: GET /values?readout=AC50&item= O=C(O)CSc1ncnc2sc3c(c12)CCC3
Reply: 28.2 µM (inconclusive)

Ask: GET /values?readout=AC50&item= CN(C)C(=O)c1ccc(-c2cncnc2NCc2ccccc2)cc1
Reply: 20 µM (inconclusive)

Ask: GET /values?readout=AC50&item= O=c1c(-c2nc3ccccc3s2)cccn1Cc1ccc(Cl)cc1
Reply: 1.41 µM (inconclusive)

Ask: GET /values?readout=AC50&item= CSc1nc(-c2ccccc2)nn1C(=O)c1ccccc1
Reply: 2.51 µM (inconclusive)
